Biological target: NRP2-b1b2 (b1b2 domain of neuropilin-2) (Homo sapiens, UniProt O60462)
Construct: b1b2 domains (275-595) of neuropilin-2
Sequence (O60462 275-595): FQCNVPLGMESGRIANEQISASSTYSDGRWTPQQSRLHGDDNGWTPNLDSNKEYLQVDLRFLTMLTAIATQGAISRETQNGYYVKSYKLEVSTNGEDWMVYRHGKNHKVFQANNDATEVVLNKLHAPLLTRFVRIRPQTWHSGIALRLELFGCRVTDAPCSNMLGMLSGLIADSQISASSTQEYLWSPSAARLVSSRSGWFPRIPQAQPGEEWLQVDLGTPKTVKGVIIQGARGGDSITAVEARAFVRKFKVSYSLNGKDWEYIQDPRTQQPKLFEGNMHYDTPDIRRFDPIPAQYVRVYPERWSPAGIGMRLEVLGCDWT
Assay: SPR (Biacore2000) binding to b1b2 domain of neuropilin-2
Details: read-out: Binding affinity KD
Field: label. Allowed values: Satisfied (Kd < 10 µM) or Not satisfied (Kd >= 10 µM).

Determine if Fc-15F22: Human IgG1 Fc with (GGGGS)3-F22 (SEQ ID NO: 9) fused to its C-terminus (GGGGSGGGGSGGGGSREAPGAPRSPEPQDQKKPRNRR) shows Kd strictly lower than 10 µM. Not satisfied

Quick check: does Fc-15F22p: Human IgG1 Fc with TPP 15F22p (SEQ ID NO: 10) fused to its C-terminus (GGGGSGGGGSGGGGSREAPGAPRSPEPQDQKKPRPRR) have Kd under 10 µM? Satisfied

Please indicate whether the reported Kd of Fc-4F22: Human IgG1 Fc with TPP 4F22 (SEQ ID NO: 8) fused to its C-terminus (GAGAREAPGAPRSPEPQDQKKPRNRR) is strictly below 10 µM. Not satisfied

Is Kd of Fc-4A22: Human IgG1 Fc with TPP 4A22 (SEQ ID NO: 5) fused to its C-terminus (GAGAHTPGNSNKWKHLQENKKGRNRR) strictly below 10 µM? Not satisfied
